system: ascites-tumor Sarcoma 180A; assay type: in vivo, ddN mice; settings: 10 mg/kg i.p., daily from one to five days
This listing pairs molecules with measured Growth Rate T/C (%).
MEASURE_NAME: Growth Rate T/C (%)

[[record]]
molecule = "NC1CCCCC1N.O=C([O-])CC(=O)[O-].[Pt+2] (centres unmarked) [Compound No. 7]"
meas_value = 61

[[record]]
molecule = "NC1CCCCC1N.O=C1CC(=O)[O][Pt][O]1 (centres unmarked) [Compound No. 8]"
meas_value = 47

[[record]]
molecule = "NC1CCCCC1N.O=C1[O][Pt][O]C1=O (centres unmarked) [Compound No. 4]"
meas_value = 0

[[record]]
molecule = "NC1CCCCC1N.O=C([O-])CC(=O)[O-].[Pt+2] (centres unmarked) [Compound No. 9]"
meas_value = 17

[[record]]
molecule = "NC1CCCCC1N.[Cl-].[Cl-].[Pt+2] (centres unmarked) [Compound No. 1]"
meas_value = 0

